systemUnderTest: Ribonucleoside-diphosphate reductase RR1 (Homo sapiens, UniProt P23921+P31350+Q7LG56)
Sequence (P23921 whole entry): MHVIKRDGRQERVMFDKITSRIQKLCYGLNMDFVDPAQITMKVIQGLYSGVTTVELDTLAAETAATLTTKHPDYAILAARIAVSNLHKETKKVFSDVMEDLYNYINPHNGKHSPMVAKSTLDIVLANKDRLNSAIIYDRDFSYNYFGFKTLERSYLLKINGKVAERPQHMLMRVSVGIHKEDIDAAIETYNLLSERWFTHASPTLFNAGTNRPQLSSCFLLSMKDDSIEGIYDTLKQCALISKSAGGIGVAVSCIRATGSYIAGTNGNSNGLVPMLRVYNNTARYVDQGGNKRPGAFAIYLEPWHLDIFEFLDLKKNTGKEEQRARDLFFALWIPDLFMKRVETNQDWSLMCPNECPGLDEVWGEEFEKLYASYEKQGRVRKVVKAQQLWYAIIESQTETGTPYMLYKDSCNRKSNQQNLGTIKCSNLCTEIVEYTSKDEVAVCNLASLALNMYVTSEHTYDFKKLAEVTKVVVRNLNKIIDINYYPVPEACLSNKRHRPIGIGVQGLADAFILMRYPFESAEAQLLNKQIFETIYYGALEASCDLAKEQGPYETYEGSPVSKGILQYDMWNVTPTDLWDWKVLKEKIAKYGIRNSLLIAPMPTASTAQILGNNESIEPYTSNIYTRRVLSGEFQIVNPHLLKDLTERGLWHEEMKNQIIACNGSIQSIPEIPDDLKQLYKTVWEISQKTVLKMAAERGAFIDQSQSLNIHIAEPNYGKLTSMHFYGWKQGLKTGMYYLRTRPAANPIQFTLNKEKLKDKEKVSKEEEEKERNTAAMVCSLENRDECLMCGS
Sequence (Q7LG56 whole entry): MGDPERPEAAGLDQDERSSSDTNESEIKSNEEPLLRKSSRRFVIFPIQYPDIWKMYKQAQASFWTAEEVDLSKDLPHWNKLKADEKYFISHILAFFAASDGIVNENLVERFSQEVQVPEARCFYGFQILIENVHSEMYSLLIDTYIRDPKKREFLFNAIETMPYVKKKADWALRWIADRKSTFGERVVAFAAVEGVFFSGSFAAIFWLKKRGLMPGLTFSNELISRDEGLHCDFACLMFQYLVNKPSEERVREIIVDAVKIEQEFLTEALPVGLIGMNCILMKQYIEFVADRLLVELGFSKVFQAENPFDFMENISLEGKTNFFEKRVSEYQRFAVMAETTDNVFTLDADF
Sequence (P31350 whole entry): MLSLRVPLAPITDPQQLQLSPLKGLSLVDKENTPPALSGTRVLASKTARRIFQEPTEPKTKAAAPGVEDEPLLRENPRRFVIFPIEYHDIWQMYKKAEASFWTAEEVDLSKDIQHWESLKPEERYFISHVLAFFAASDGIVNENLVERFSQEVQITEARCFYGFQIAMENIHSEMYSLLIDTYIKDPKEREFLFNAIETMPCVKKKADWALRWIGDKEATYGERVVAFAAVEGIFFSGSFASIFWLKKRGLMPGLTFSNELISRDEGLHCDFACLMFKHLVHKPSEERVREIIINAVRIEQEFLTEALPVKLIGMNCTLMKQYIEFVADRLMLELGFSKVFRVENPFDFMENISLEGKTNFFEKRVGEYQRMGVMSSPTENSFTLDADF
testDetails: Inhibition of N-terminal 6xHis-tagged Homo sapiens (human) recombinant ribonucleotide reductase M2/M1 expressed in Escherichia coli BL21 (DE3) using [3H]CDP as substrate after 30 min
measuredQuantity: IC50 (µM)

# example entries with known answers
chemicalSmiles | systemUnderTest | IC50 [µM]
Oc1ccc(/C=N/NC(=S)Nc2ccc(O)cc2)cc1 | Ribonucleoside-diphosphate reductase RR1 (Homo sapiens, UniProt P23921+P31350+Q7LG56) | 43.3
Oc1ccc(/C=N/NC(=S)Nc2cccc(Cl)c2)cc1 | Ribonucleoside-diphosphate reductase RR1 (Homo sapiens, UniProt P23921+P31350+Q7LG56) | 29.3
Cc1ccc(NC(=S)N/N=C/c2ccc(O)cc2)cc1 | Ribonucleoside-diphosphate reductase RR1 (Homo sapiens, UniProt P23921+P31350+Q7LG56) | 14.2

(A) Cc1cccc(NC(=S)N/N=C/c2ccc(O)cc2)c1
(B) Oc1ccc(/C=N/NC(=S)Nc2ccccc2Cl)cc1
For the pair A and B , which member has the lower IC50 number? # answer = label of selected item
A
